Ref: ChEMBL document CHEMBL1142217

Target: Thromboxane-A synthase (Homo sapiens)
Sequence (P24557 whole entry): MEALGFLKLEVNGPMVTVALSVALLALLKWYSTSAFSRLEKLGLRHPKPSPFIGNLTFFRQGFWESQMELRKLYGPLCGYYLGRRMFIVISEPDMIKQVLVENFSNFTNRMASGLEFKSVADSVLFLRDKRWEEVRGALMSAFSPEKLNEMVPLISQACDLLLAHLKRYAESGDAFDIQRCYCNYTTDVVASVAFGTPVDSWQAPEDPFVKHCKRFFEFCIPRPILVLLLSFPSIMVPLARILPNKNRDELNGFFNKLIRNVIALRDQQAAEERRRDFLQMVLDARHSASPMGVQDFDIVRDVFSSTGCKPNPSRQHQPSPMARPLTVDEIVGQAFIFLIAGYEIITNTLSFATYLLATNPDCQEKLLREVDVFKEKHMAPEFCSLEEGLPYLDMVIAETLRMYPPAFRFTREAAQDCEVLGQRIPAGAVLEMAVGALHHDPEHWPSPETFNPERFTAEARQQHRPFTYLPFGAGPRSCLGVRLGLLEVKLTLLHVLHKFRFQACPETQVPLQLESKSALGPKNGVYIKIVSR

{"columns": ["Compound String", "Assay Target", "IC50 / µM"],
 "data": [
  ["N#Cc1cccc(C#N)c1-c1nc2c3ccc(Cl)cc3c3ccccc3c2[nH]1", "Thromboxane-A synthase (Homo sapiens)", 3]
]}

====

experiment: Cmax in rat at 20 mg/kg, po; type: ADME, organism-based; parameters: dose 20 mg/kg, route oral; settings: in vivo
Property: Cmax (µM)

{"columns": ["Compound String", "Result"],
 "data": [
  ["N#Cc1cccc(C#N)c1-c1nc2c3ccc(Cl)cc3c3ccccc3c2[nH]1", 12]
]}

====

molecular target: Tyrosine-protein kinase JAK2 (Homo sapiens)
Sequence (O60674 whole entry): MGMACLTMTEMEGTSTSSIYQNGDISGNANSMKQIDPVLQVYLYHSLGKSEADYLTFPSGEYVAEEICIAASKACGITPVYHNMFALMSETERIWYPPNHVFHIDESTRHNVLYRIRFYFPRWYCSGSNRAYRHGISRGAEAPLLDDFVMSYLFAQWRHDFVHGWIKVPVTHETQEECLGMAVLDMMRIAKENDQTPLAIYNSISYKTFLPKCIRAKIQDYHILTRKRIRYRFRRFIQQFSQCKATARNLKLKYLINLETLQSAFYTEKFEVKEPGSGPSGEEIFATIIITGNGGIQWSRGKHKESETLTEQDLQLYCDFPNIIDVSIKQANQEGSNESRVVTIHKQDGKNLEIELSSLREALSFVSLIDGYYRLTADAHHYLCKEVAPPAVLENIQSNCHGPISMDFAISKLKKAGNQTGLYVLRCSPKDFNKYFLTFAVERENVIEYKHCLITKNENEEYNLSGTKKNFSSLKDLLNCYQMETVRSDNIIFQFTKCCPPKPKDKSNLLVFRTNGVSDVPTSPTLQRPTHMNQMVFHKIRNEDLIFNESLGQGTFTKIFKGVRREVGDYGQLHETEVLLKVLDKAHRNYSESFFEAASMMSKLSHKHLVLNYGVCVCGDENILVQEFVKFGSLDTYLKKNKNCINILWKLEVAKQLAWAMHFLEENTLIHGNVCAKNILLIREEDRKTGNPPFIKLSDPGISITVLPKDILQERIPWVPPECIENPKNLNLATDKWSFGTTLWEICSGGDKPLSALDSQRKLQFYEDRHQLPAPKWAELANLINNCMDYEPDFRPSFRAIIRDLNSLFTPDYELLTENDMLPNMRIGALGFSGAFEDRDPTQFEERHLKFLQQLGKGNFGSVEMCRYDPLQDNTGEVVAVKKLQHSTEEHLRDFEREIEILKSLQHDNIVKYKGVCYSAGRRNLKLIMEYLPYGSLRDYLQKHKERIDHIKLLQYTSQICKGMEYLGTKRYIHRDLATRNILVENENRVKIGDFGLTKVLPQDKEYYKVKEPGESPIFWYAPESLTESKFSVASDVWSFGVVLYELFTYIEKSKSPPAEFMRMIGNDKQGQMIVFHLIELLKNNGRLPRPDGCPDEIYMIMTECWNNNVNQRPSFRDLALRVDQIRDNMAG
Property: IC50 (nM)

{"columns": ["Compound String", "Property", "Result"],
 "data": [
  ["N#Cc1cccc(C#N)c1-c1nc2c3ccc(Cl)cc3c3ccccc3c2[nH]1", "IC50", 100]
]}

====

assay: Oral bioavailability in rat at 20 mg/kg; type: ADME, organism-based; conditions: in vivo

{"columns": ["Compound String", "bioavailability (%)"],
 "data": [
  ["N#Cc1cccc(C#N)c1-c1nc2c3ccc(Cl)cc3c3ccccc3c2[nH]1", 68]
]}

====

test system: A549; test: Inhibition of IL-1-beta-stimulated PGE2 production in human A549 cells in presence of 50% fetal bovine serum

{"columns": ["Compound String", "IC50 / µM"],
 "data": [
  ["N#Cc1cccc(F)c1-c1nc2c3ccccc3c3ccccc3c2[nH]1", 1.1],
  ["O=c1[nH]ccc2c3[nH]c(-c4ccccc4C(F)(F)F)nc3c3ccc(F)cc3c12", 5.1],
  ["Brc1cccc(Br)c1-c1nc2c3ccccc3c3ccccc3c2[nH]1", 2.7],
  ["Clc1cccc(Cl)c1-c1nc2c3ccccc3c3ccccc3c2[nH]1", 1.1],
  ["O=c1[nH]ccc2c3[nH]c(-c4ccc(Cl)cc4)nc3c3ccc(F)cc3c12", 0.82]
]}
